For each of the molecules below, state its EC50.
system: Amphibalanus amphitrite; assay: Antifouling activity against Balanus amphitrite larvae; format: functional; details: Amphibalanus amphitrite; read-out: ED50 (the source's name)
Numbers only, in µg/mL.

- molecule: "C#C/C=C\\CCCC/C=C\\C#CC#CC(O)CCC#CC#CC(O)CO (centres undefined)"
  studyTarget: "Amphibalanus amphitrite"
  uom: "µg/mL"
  measValue: 1.3
- molecule: "C#CC#CCCCC#CC#C/C=C\\CCCC/C=C\\C#C"
  studyTarget: "Amphibalanus amphitrite"
  uom: "µg/mL"
  measValue: 0.25
- molecule: "C#C/C=C\\CCCC/C=C\\C#CC#CCCCC#CC#C[C@H](COS(=O)(=O)[O-])OS(=O)(=O)[O-].[Na+].[Na+]"
  studyTarget: "Amphibalanus amphitrite"
  uom: "µg/mL"
  measValue: 0.13
- molecule: "C#C/C=C\\CCCC/C=C\\C#CC#CCCCC#CC#C[C@@H](O)CO"
  studyTarget: "Amphibalanus amphitrite"
  uom: "µg/mL"
  measValue: 0.25
- molecule: "C#C/C=C\\CCCC(O)/C=C/C#CC#CCCCC#CC#CC(O)CO (centres undefined)"
  studyTarget: "Amphibalanus amphitrite"
  uom: "µg/mL"
  measValue: 0.13

# return EC50 for each item in the list
1. C#C/C=C/C(O)CCC/C=C\C#CC#CCCCC#CC#CC(O)CO (centres undefined)
2. C#C/C=C\C(O)CCC/C=C\C#CC#CCCCC#CC#CC(O)CO (centres undefined)
3. C#C/C=C\CCCC(O)/C=C\C#CC#CCCCC#CC#CC(O)CO (centres undefined)
4. C#C/C=C\CCCC#CC#CCCCCCC/C=C\C#C

Result ::
[1.3, 0.13, 1.3, 0.25]
